Data provenance: patent US8993768B2

tested-on: HIV-1 RNase H (p66/p51 HIV-1 RT) (Human immunodeficiency virus type 1 group M subtype B, UniProt P04585)
Construct: RT is a p66/p51 heterodimer comprised of asymmetrically-organized subunits processed from the 165 kDa gag/pol polyprotein precursor; (His)6; made in house; host or cells: Escherichia coli
protocol-text: High throughput RNase H assay on sequence-independent RNA/DNA hybrid
Type: biochemical
experimental-parameters: HIV-1 RNase H enzymatic activity, sequence-independent RNA/DNA hybrid; read-out: In vitro IC50
Record form. Attribute: pIC50. Fill in for each entry.
Scale: pIC50 equals -log10([C]), with [C] in mol/L.

Inquiry: Given the molecule CCSCC(C)(O)C1CCc2c(c(C)cc(O)c(=O)c2O)C1 (mixture of isomers) , what is its reported pIC50?
Reply text: 6.39

Inquiry: Need pIC50 of Cc1cc(O)c(=O)c(O)c2c1CC(C(C)(O)CSCc1ccccc1)CC2 (mixture of isomers) , thanks.
Reply text: 5.89

Inquiry: Need pIC50 of Cc1cc(O)c(=O)c(O)c2c1CC(C(C)(O)CN1CCCCC1)CC2 (mixture of isomers) , thanks.
Reply text: 6.03

Inquiry: Bench note: what pIC50 did Cc1cc(O)c(=O)c(O)c2c1CC(C(C)(O)CSc1ccccc1)CC2 (mixture of isomers) show?
Reply text: 6.04
